ASSAY: Toxicity liver stage against HepG2, at 10uM
Type: cell-based
Parameters: test concentration 10 uM, cell line HepG2-A16-CD81EGFP
MEASUREMENT_SETUP: human, HepG2-A16-CD81EGFP cells; read-out: INHIBITION
Please go through the items and note down their cytotoxicity at 10 µM.
Give bare numbers, in %.

MOLECULE: CCc1oc(C(=O)N[C@@H]2c3ccccc3C[C@@H]2O)cc1CN1CCCC1
METRIC: cytotoxicity at 10 µM
UNITS_SYMBOL: %
RESULT_VALUE: -5.65

Parameter requested: cytotoxicity at 10 µM. Apply to each item below.
1. Cc1nn(C)c(N2CCCN(C)CC2)c1CNC(=O)CCC(C)C
2. O=S(=O)(C1CC1)N1C[C@@H]2CN(Cc3cccs3)CCO[C@@H]2C1
3. Cc1noc(C)c1CNC(=O)NCCOc1ccc(F)cc1F

1. -1.08
2. -134
3. 0.409

Parameter requested: cytotoxicity at 10 µM. Apply to each item below.
1. Cn1cc(C2CCCN2C(=O)c2ccc(Br)o2)cn1 (stereo unspecified)
2. COc1ccc2c(c1)C(=O)N(C)C1(CCN(CC3CC3)CC1)N2
3. CCN(CC1COc2ccccc2O1)C(=O)C1=NN(C)C(=O)CC1 (stereo unspecified)

1: -3.32; 2: 6.4; 3: -39.6

Parameter requested: cytotoxicity at 10 µM. Apply to each item below.
1. Cc1ncsc1C(=O)N(C)Cc1cccnc1
2. CNC(=O)C1CCN(C(=O)c2coc(COc3ccc(OC)cc3)n2)C1 (stereo unspecified)
3. CCn1ncnc1C(C)NC(=O)COc1ccc(Cl)cc1Cl (stereo unspecified)
4. COCCOCC(=O)N1C[C@@H]2CC[C@H](Oc3ccccc3F)[C@@H]2C1

1. -5.57
2. -1.74
3. 2.8
4. -1.96

----------
Please go through the items and note down their cytotoxicity at 10 µM.
ASSAY: Toxicity liver stage against HepG2, at 10uM
Format: cell-based
Parameters: test concentration 10 uM, cell line HepG2-A16-CD81EGFP
MEASUREMENT_SETUP: human, HepG2-A16-CD81EGFP cells; read-out: INHIBITION
One number for each entry, in %.

COMPOUND: COC(=O)CSCc1noc(-c2ccc(Cl)cc2)n1
cytotoxicity at 10 µM, %: 1.94

Parameter requested: cytotoxicity at 10 µM. Apply to each item below.
1. Cc1cc(C2CCCN(S(=O)(=O)c3cn[nH]c3)C2)ccn1 (stereo unspecified)
2. CNc1nc(C2CCCN(C(=O)C(C)(C)OC)C2)nc2c1CN(C)CC2 (stereo unspecified)

1: -1.77; 2: -8.24

Parameter requested: cytotoxicity at 10 µM. Apply to each item below.
1. COc1ccccc1CN1C(=O)O[C@@H]2CN(S(=O)(=O)N(C)C)C[C@@H]21
2. Cc1cn2c(n1)CCC(NC(=O)c1c[nH]c(C)n1)C2 (stereo unspecified)
3. Cc1c[nH]nc1C1CCCN(c2cnccn2)C1 (stereo unspecified)

1: 2.54; 2: -0.361; 3: 8.75

----------
ASSAY: Toxicity liver stage against HepG2, at 10uM
Type: cell-based
Parameters: test concentration 10 uM, cell line HepG2-A16-CD81EGFP
MEASUREMENT_SETUP: human, HepG2-A16-CD81EGFP cells; read-out: INHIBITION
METRIC: cytotoxicity at 10 µM (%)
Numbers only, in %.

Please review the entries below; each comes with its answer.
MOLECULE: CC(NCCn1c(=O)oc2ccccc21)c1ccccn1 (stereo unspecified)
cytotoxicity at 10 µM, %: -7.1

MOLECULE: O=C(C1CCOCC1)N1CC[C@@H]2[C@H]1CCC(=O)N2c1ccccc1
cytotoxicity at 10 µM, %: 5.5

Parameter requested: cytotoxicity at 10 µM. Apply to each item below.
1. CSCC(=O)N1CCc2c(cnc(C)c2-c2noc(-c3cscn3)n2)C1
2. CC(C)(C)c1n[nH]c(C2CN(C(=O)c3cc(C4CC4)on3)CCO2)n1 (stereo unspecified)
3. CCn1c(CN(C)C(=O)c2ccc(O)nc2)nc2ccccc21
4. COc1ccc(CN(C)C2CCN(C(=O)C(C)C)CC2)c2cccnc12
5. Cc1ccc(CN2CCn3cc(CNC(=O)c4cnn(C)c4)nc3C2)s1
6. CSc1ncccc1C(=O)N(C)CCc1scnc1C
7. O=S(=O)(Nc1cnc(N2CCOCC2)nc1)c1cccc(F)c1
8. CNc1ncccc1C(=O)N1CCC2(CCN(C)C2)CC1

0.86
-15.8
10.2
12.5
1.13
4.23
-19.2
0.521

Parameter requested: cytotoxicity at 10 µM. Apply to each item below.
1. Cn1ccc(C(=O)NC2CCN(c3ncccn3)CC2)cc1=O
2. CC(C)n1cnc(C2CN(C)c3ccc(C(=O)NCC4CC4)cc32)n1 (stereo unspecified)
3. CCN(c1ccc(C(=O)N2CCC(C)CC2)cc1)S(=O)(=O)CC
4. CN(Cc1ccccc1F)C(C(N)=O)c1ccccc1 (stereo unspecified)
5. O=C(c1cccs1)N1CCOCC2(C1)CN(c1ccccc1)C(=O)CO2 (stereo unspecified)
6. CCOc1ccc(Cl)c(C(=O)N2CCN(CC(O)CC)CC2)n1 (stereo unspecified)
7. CSCc1noc(CN2CCC3(CC2)CC(=O)N(CC=C(C)C)C3)n1

1: -7.32; 2: -2.19; 3: 7.36; 4: -2.09; 5: -0.756; 6: -4.85; 7: -0.589

Parameter requested: cytotoxicity at 10 µM. Apply to each item below.
1. CCOCC1CN(C(=O)c2ccnnc2)Cc2cnn(C)c21 (stereo unspecified)
2. O=C(CCOc1cccc(Cl)c1)N1CCN(c2cnccn2)CC1
3. CN(Cc1ncc(C(C)(C)C)o1)CC1CCCN1c1cccnn1 (stereo unspecified)

[7.07, -0.284, -5.52]

Parameter requested: cytotoxicity at 10 µM. Apply to each item below.
1. CC(C)N(C)Cc1cnc2n1CCN(C(=O)Cc1ccccn1)C2
2. Cc1nn(C)c(C)c1CN(C)C1CCN(c2ncnc3[nH]cnc23)CC1
3. NC(=O)C1CCN(c2nccc(-c3c[nH]nc3C3CCCCC3)n2)CC1
4. CC(C)NC(=O)[C@@H]1CCO[C@@H]2CCN(c3ncccn3)C[C@H]21
5. Cc1csc(N2CCN(CC(=O)Nc3cccnc3)CC2C)n1 (stereo unspecified)
6. CC(C)CC(=O)Nc1cccc(CNCc2cccs2)c1
7. COc1cccc(-n2cc3[nH]c(=O)n(Cc4cccc(F)c4)n3c2=O)c1

1: -0.405; 2: -76.7; 3: -10.6; 4: -7.6; 5: 14.1; 6: 0.25; 7: 0.647

Parameter requested: cytotoxicity at 10 µM. Apply to each item below.
1. Cc1cc(CNC(=O)Cc2cccs2)ccc1S(C)(=O)=O
2. Cc1occc1CNC(=O)N(CCCO)C1CCc2ccccc21 (stereo unspecified)
3. CCSc1ccccc1C(=O)NCCn1nc(-n2cncn2)ccc1=O
4. CN(Cc1ccco1)C(=O)CN1CCCC1Cn1cncn1 (stereo unspecified)
5. Cc1nn(C)c2ncc(CN3CCCCCC3)cc12
6. O=C(c1ccncc1)N1CCCC(c2ncncc2-c2ccncc2)C1 (stereo unspecified)
7. CCn1nc(C)cc1C(=O)N1C[C@H]2CCC[C@@]2(COc2ccccn2)C1
8. Cc1cccc(CN2C[C@@H]3CN(C(=O)c4cnccn4)C[C@@H]3C2=O)n1

1. -2.74
2. -0.842
3. -5.65
4. -24.1
5. 0.106
6. -17.2
7. 0.529
8. 3.14

Parameter requested: cytotoxicity at 10 µM. Apply to each item below.
1. O=C(c1ccc2c(c1)CCO2)N1CCN(c2cnccn2)CC1
2. CCCNC(=O)CCNC1CSCCc2ccccc21 (stereo unspecified)

1. -14.4
2. -0.421

Parameter requested: cytotoxicity at 10 µM. Apply to each item below.
1. CCS(=O)(=O)CCNC(=O)[C@@]12CNC[C@@H]1CN(C1CCCC1)C2
2. CCc1nnc2n1CCN(CC(=O)Nc1sccc1C#N)C2
3. CC(C)CCNc1nc(C(=O)NC2CC2)cs1
4. N#Cc1ncn(CCC(=O)Nc2ccc(Cl)cc2F)n1
5. CC(C)(C)c1n[nH]cc1CNC1CCC(OCC(F)(F)F)CC1 (stereo unspecified)
6. Cc1ccc(-n2nnc(C(=O)NS(C)(=O)=O)c2C2CC2)cc1
7. CNC(=O)N1CC[C@@H]2CN(Cc3ccccc3)S(=O)(=O)[C@@H]2CC1

[-20.3, -7.67, 0.461, -8.94, -0.0197, -13.9, -96.6]

Parameter requested: cytotoxicity at 10 µM. Apply to each item below.
1. CN1CC2(COCCN(C(=O)c3ccco3)C2)OCC1=O (stereo unspecified)
2. O=C(c1ncccn1)N1C[C@@H]2COC[C@]2(COCc2cccnc2)C1

[2.33, -1.9]

----------
ASSAY: Toxicity liver stage against HepG2, at 10uM
Type: cell-based
Parameters: test concentration 10 uM, cell line HepG2-A16-CD81EGFP
MEASUREMENT_SETUP: human, HepG2-A16-CD81EGFP cells; read-out: INHIBITION
METRIC: cytotoxicity at 10 µM (%)
Give bare numbers, in %.

Parameter requested: cytotoxicity at 10 µM. Apply to each item below.
1. Cc1n[nH]c(CCC(=O)N2CCOC(Cc3ccccc3)C2)c1C (stereo not drawn)
2. Cc1ccnn1-c1ccc(C(=O)N2CCCC(n3ccnc3)C2)cc1 (stereo not drawn)
3. O=S(=O)(C1CC1)N1CCc2ncnc(N3CCOCC3)c2CC1
4. CSCC(C)(O)CNS(=O)(=O)c1cccc(C)c1 (stereo not drawn)
5. Cc1cc(C)c(C(=O)N2CCc3c(ncn3CCc3ccccc3)C2)[nH]1

-44.1
-18.2
-109
-2.85
7.13
